target.desc: human CGT (ceramide galactosyltransferase), CHO/CGT lysate (Homo sapiens, UniProt Q16880)
Construct: Full-length human CGT cDNA was cloned into the BamH1/Xho1 site of pcDNA3.1 (+); expressed in transfected cells; host or cells: Chinese hamster ovary (CHO) cells; lysate prepared with M-PER
Sequence (Q16880 21-541): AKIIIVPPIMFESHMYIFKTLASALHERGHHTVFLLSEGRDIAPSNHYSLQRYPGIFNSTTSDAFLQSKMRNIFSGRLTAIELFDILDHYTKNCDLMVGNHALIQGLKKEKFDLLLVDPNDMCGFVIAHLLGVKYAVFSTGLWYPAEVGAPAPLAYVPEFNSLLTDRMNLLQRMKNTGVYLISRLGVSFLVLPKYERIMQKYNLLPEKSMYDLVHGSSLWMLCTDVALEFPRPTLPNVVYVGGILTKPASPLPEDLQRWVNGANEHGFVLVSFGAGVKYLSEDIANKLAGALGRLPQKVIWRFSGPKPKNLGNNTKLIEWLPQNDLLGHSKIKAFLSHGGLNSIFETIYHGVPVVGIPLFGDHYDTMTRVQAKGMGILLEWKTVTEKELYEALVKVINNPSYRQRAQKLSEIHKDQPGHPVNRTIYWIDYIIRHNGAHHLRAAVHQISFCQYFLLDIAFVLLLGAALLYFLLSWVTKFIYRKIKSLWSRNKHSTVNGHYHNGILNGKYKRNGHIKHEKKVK
run.description: CGT enzyme assay, RapidFire/MS/MS readout (Table 1 ranges with one asterisk *)
Assay type: biochemical
details: RapidFire method (range with one asterisk *)
pIC50: −log10 of the molar value. Where a name gives a salt, the structure may show the parent alone.
observed.property: pIC50

NCC1CCN(C(=O)[C@@H](NS(=O)(=O)c2ccc3cc(OC4CCCC4)ccc3c2)C(F)(F)c2ccc(-c3ccc(Cl)cc3)cc2)CC1 [Compound 138-1, trifluoroacetate]    > 6.00
NC1CC2CCC(C1)N2C(=O)[C@H](NS(=O)(=O)c1ccc(OCC2CCCC2)cc1)C(F)(F)c1ccc(C(F)(F)F)cc1 (some centres unmarked) [Compound 60-2]    4.52 to 5.00
NC1CC2CCC(C1)N2C(=O)[C@@H](NS(=O)(=O)c1ccc2cc(OC3CCCC3)ccc2c1)C(F)(F)c1cccc(Br)c1 (some centres unmarked) [Compound 65-1]    5.00 to 6.00
CCOc1ccc(C(F)(F)[C@@H](C(=O)N2C3CCC2CC(N)C3)N(C)S(=O)(=O)c2ccc3cc(OC4CCCC4)ccc3c2)cc1 (some centres unmarked) [Compound 114-1]    5.00 to 6.00
NC1CC2CCC(C1)N2C(=O)[C@H](NS(=O)(=O)c1ccc2cc(OC3CCCC3)ccc2c1)C(F)(F)c1cccc(Br)c1 (some centres unmarked) [Compound 65-2]    4.52 to 5.00
COc1cc(C(F)(F)[C@@H](NS(=O)(=O)c2ccc3cc(OC4CCCC4)ccc3c2)C(=O)N2C3CCC2CC(N)C3)ccc1-c1ccc(Cl)cc1 (some centres unmarked) [Compound 135-2, trifluoroacetate]    5.00 to 6.00

Below are some molecules; for each one, tell me its pIC50.
1. CCCCOc1ccc(C(F)(F)[C@@H](NS(=O)(=O)c2ccc(OCC3CCCCC3)cc2)C(=O)N2CCC(N)CC2)cc1 [Compound 81-2, trifluoroacetate]
2. NC1CC2CCC(C1)N2C(=O)[C@@H](NC(=O)[C@H](O)c1ccc2cc(OC3CCCC3)ccc2c1)C(F)(F)c1ccc(-c2ccc(Cl)cc2)cc1 (some centres unmarked) [Compound 136-1, trifluoroacetate]
3. COc1cc(C(F)(F)[C@H](NS(=O)(=O)c2ccc3cc(OC4CCCC4)ccc3c2)C(=O)N2C3CCC2CC(N)C3)ccc1Br (some centres unmarked) [Compound 89-1]
4. N[C@H]1CCCN(C(=O)[C@@H](NS(=O)(=O)c2ccc3cc(OC4CCCC4)ccc3c2)C(F)(F)c2ccc(Br)cc2)C1 [Compound 132-1, trifluoroacetate]

Solution:
1: 4.00 to 4.52; 2: 5.00 to 6.00; 3: > 6.00; 4: 5.00 to 6.00

Below are some molecules; for each one, tell me its pIC50.
1. NC1CCN(C(=O)[C@@H](NS(=O)(=O)c2ccc3c(cnn3CC3CCCC3)c2)C(F)(F)c2ccc(C(F)(F)F)cc2)CC1 [Compound 93-1]
2. COc1cc(C(F)(F)[C@H](NS(=O)(=O)c2ccc(OCC3CCCCC3)cc2)C(=O)N2CCC(N)CC2)ccc1Cl [Compound 129-1]
3. NC1CCN(C(=O)[C@H](NS(=O)(=O)c2ccc3c(cnn3CC3CCCC3)c2)C(F)(F)c2ccc(C(F)(F)F)cc2)CC1 [Compound 93-2]
4. NC1CCN(C(=O)[C@H](NS(=O)(=O)c2ccc(OCC3CCCCC3)cc2)C(F)(F)c2ccc(OC3CCCCC3)cc2)CC1 [Compound 103-2]

Solution:
["5.00 to 6.00", "5.00 to 6.00", "4.00 to 4.52", "4.00 to 4.52"]

Below are some molecules; for each one, tell me its pIC50.
1. NC1CCN(C(=O)[C@@H](NS(=O)(=O)c2ccc3c(cnn3CC3CCCC3)c2)C(F)(F)c2ccc(Cl)cc2)CC1 [Compound 99-1]
2. NC1CCN(C(=O)[C@@H](NS(=O)(=O)c2ccc(OCC3CCCCC3)cc2)C(F)(F)c2ccc(-c3ccc(Cl)cc3)cc2)CC1 [Compound 96-1, trifluoroacetate]
3. CCCCOc1ccc(C(F)(F)[C@H](NS(=O)(=O)c2ccc(OCC3CCCCC3)cc2)C(=O)N2CCC(N)CC2)cc1 [Compound 81-1, trifluoroacetate]
4. NC1CC2CCC(C1)N2C(=O)[C@@H](NS(=O)(=O)c1ccc2cc(OC3CCCC3)ccc2c1)C(F)(F)c1ccc(Cl)s1 (some centres unmarked) [Compound 130-1]
5. CCCCOc1ccc(C(F)(F)[C@@H](C(=O)N2CCC(N)CC2)N(C)S(=O)(=O)c2ccc(OCC3CCCCC3)cc2)cc1 [Compound 58-1]
6. NC1CCN(C(=O)[C@H](NS(=O)(=O)c2ccc3cc(OC4CCCC4)ccc3c2)C(F)(F)c2cccc(-c3ccccc3)c2)CC1 [Compound 69-2, trifluoroacetate]

Solution:
5.00 to 6.00
5.00 to 6.00
5.00 to 6.00
5.00 to 6.00
5.00 to 6.00
4.00 to 4.52

Below are some molecules; for each one, tell me its pIC50.
1. NC1CC2CCC(C1)N2C(=O)[C@H](NS(=O)(=O)c1ccc(OCC2CCCCC2)cc1)C(F)(F)c1ccc(-c2ccc(Cl)cc2)cc1 (some centres unmarked) [Compound 50-2, trifluoroacetate]
2. CN([C@@H](C(=O)N1C2CCC1CC(N)C2)C(F)(F)c1cccc(Br)c1)S(=O)(=O)c1ccc2cc(OC3CCCC3)ccc2c1 (some centres unmarked) [Compound 67-2]
3. NC1CC2CCC(C1)N2C(=O)[C@@H](NS(=O)(=O)c1ccc2cc(OC3CCCC3)ccc2c1)C(F)(F)c1cccc(-c2ccccc2)c1 (some centres unmarked) [Compound 66-1]

Solution:
4.52 to 5.00
4.00 to 4.52
> 6.00
